tested on: xanthine oxidase (Rattus norvegicus, UniProt P22985)
Construct: administered orally to seven-week-old male Wistar rats (4 rats per group); from tissue; host or cells: whole animal (male Wistar rats); the enzyme is endogenous and was not isolated
Sequence (P22985 whole entry): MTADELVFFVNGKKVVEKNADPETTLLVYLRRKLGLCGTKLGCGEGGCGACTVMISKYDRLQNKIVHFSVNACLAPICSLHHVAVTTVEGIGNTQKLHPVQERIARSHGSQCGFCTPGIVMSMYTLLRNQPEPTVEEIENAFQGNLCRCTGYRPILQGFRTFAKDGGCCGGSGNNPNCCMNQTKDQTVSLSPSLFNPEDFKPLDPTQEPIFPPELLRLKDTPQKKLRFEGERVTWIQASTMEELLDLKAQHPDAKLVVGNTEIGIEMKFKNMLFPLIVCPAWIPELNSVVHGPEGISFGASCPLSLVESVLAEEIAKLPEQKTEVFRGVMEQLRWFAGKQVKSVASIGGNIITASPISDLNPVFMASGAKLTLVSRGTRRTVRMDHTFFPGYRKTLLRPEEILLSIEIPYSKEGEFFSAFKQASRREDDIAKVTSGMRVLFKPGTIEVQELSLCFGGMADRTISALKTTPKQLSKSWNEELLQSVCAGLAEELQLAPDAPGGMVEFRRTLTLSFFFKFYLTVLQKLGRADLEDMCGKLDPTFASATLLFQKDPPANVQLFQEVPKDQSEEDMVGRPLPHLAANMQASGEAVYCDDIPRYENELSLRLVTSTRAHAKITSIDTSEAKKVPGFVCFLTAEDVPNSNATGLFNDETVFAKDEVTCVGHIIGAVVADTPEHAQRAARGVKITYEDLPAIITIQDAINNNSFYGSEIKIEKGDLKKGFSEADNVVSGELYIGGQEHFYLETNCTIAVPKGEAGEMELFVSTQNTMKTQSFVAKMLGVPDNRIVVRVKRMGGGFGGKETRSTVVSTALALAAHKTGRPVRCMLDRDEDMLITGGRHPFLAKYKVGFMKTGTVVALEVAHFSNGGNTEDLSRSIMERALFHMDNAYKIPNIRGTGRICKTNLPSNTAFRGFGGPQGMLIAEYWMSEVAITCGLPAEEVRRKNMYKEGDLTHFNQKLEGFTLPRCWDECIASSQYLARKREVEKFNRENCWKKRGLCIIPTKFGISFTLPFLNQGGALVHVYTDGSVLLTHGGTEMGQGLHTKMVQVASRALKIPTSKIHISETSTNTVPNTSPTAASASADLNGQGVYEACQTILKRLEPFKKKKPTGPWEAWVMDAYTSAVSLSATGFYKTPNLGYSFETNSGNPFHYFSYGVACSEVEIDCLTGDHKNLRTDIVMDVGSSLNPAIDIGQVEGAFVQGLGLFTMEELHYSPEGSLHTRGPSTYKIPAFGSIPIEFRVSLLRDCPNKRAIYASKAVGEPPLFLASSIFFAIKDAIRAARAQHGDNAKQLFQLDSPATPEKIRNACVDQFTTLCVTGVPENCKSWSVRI
experiment summary: Effect of lowering serum uric acid level in vivo (oral, Wistar rats)
experimental setup: male Wistar rats, 0.3 mg/5 ml/kg in 0.5% methylcellulose, blood collected 6 hours after administration
Provide the reported Reduction rate of serum uric acid level of each item.
Express it in %; write the number only.

Which value of Reduction rate of serum uric acid level has been reported for COCCOCCOc1ccc(-c2nc(-c3ccnc(C)c3)n[nH]2)cc1C#N [Example 32] in the records? 52.0

Would you mind telling me what Reduction rate of serum uric acid level value was observed for CC(C)COc1ccc(-c2n[nH]c(-c3ccncc3)n2)cc1C#N [Example 2] ? 62.3

May I ask what Reduction rate of serum uric acid level has been recorded for Cc1cc(-c2n[nH]c(-c3ccc(OCCC(C)C)c(C#N)c3)n2)ccn1 [Example 25] ? 47.2

May I ask what Reduction rate of serum uric acid level has been recorded for Cc1cc(-c2nc(-c3ccc(N4CCN(C)CC4)c([N+](=O)[O-])c3)n[nH]2)ccn1 [Example 4] ? 43.9

Query (molecule): Cc1cc(-c2n[nH]c(-c3ccc(OCC(C)C)c(C#N)c3)n2)ccn1 [Example 20] ; field requested: Reduction rate of serum uric acid level 67.5

Please report the recorded Reduction rate of serum uric acid level for N#Cc1cc(-c2n[nH]c(-c3cc[n+]([O-])cc3)n2)ccn1 [Example 35] . 46.8

# input molecule: Cc1cc(-c2nc(-c3ccnc(Cl)c3)n[nH]2)ccn1 [Example 27] ; wanted: its Reduction rate of serum uric acid level 32.9

Quick one: Reduction rate of serum uric acid level for Cc1cc(-c2nc(-c3ccc(SCC(C)C)c([N+](=O)[O-])c3)n[nH]2)ccn1 [Example 7] ? 42.7

// Reduction rate of serum uric acid level lookup, key: COCCOCCOCCOc1ccc(-c2nc(-c3ccnc(C)c3)n[nH]2)cc1C#N [Example 33] 44.7

# query: Reduction rate of serum uric acid level of entry Cc1cc(-c2nc(-c3ccnc(C#N)c3)n[nH]2)ccn1 [Example 23] 41.1

State the recorded Reduction rate of serum uric acid level for this entry: CC(C)Oc1ccc(-c2nc(-c3ccncc3)n[nH]2)cc1[N+](=O)[O-] [Example 16] 36.1

Data request, read-out Reduction rate of serum uric acid level, for COc1ccc(COc2ccc(-c3nc(-c4ccnc(C)c4)n[nH]3)cc2C#N)cc1 [Example 24] 38.3

What does the record list as Reduction rate of serum uric acid level for Cc1cc(-c2nc(-c3ccc(OCC(C)C)c([N+](=O)[O-])c3)n[nH]2)ccn1 [Example 1] ? 66.5

Given the molecule C#CCOc1ccc(-c2nc(-c3ccnc(C)c3)n[nH]2)cc1C#N [Example 28] , what is its reported Reduction rate of serum uric acid level? 35.3

Data request, read-out Reduction rate of serum uric acid level, for Cc1cc(-c2nc(-c3ccc(NCC(C)C)c([N+](=O)[O-])c3)n[nH]2)ccn1 [Example 5] 39.9

Which Reduction rate of serum uric acid level is listed for COCCOCOc1ccc(-c2n[nH]c(-c3ccnc(C)c3)n2)cc1C#N [Example 3] ? 40.0

Please look up its Reduction rate of serum uric acid level: COc1ccc(-c2nc(-c3ccnc(C)c3)n[nH]2)cc1[N+](=O)[O-] [Example 21] 52.9

Need Reduction rate of serum uric acid level of N#Cc1cc(-c2n[nH]c(-c3ccnc(Cl)c3)n2)ccn1 [Example 37] , thanks. 33.6

###

tested on: xanthine oxidase (Rattus norvegicus, UniProt P22985)
Construct: administered orally to seven-week-old male Wistar rats (4 rats per group); from tissue; host or cells: whole animal (male Wistar rats); the enzyme is endogenous and was not isolated
experiment summary: Effect of lowering serum uric acid level in vivo (oral, Wistar rats)
experimental setup: male Wistar rats, 0.3 mg/5 ml/kg in 0.5% methylcellulose, blood collected 6 hours after administration
observation type: Reduction rate of serum uric acid level (%)
Respond numerically; units are % and should not be typed.

// map `Cc1cc(-c2nc(-c3ccc(OCC(C)C)c([N+](=O)[O-])c3)nn2COC(=O)C(C)(C)C)ccn1` to recorded Reduction rate of serum uric acid level (system: xanthine oxidase (Rattus norvegicus, UniProt P22985)) 43.0

Param readout= Reduction rate of serum uric acid level; system= xanthine oxidase (Rattus norvegicus, UniProt P22985); entry= `COc1ccc(-c2nc(-c3ccnc(C)c3)n[nH]2)cc1C#N` ; returns value. 37.9

Form field - read-out: Reduction rate of serum uric acid level; system: xanthine oxidase (Rattus norvegicus, UniProt P22985); submitted item: `CC(C)COc1ccc(-c2n[nH]c(-c3ccncc3)n2)cc1[N+](=O)[O-]` 46.8

Please state recorded Reduction rate of serum uric acid level (tested on xanthine oxidase (Rattus norvegicus, UniProt P22985)) of `CSCOc1ccc(-c2n[nH]c(-c3ccnc(C)c3)n2)cc1[N+](=O)[O-]` 35.7

Short answer please: Reduction rate of serum uric acid level, xanthine oxidase (Rattus norvegicus, UniProt P22985), entry `N#Cc1cc(-c2nc(-c3ccncc3)n[nH]2)ccn1` 51.1

Form field: Reduction rate of serum uric acid level recorded for `Cc1cc(-c2nc(-c3ccc(OCSc4ccccc4)c([N+](=O)[O-])c3)n[nH]2)ccn1` with xanthine oxidase (Rattus norvegicus, UniProt P22985) (enter value) 32.5

Return Reduction rate of serum uric acid level measured with xanthine oxidase (Rattus norvegicus, UniProt P22985) given this molecule: Cc1cc(-c2nc(-c3ccc(OCC4CCCCO4)c([N+](=O)[O-])c3)n[nH]2)ccn1 (centres unmarked) 41.6

Enter reported Reduction rate of serum uric acid level observed with xanthine oxidase (Rattus norvegicus, UniProt P22985) for `Cc1cc(-c2n[nH]c(-c3ccc(OCCOCCOCCCl)c(C#N)c3)n2)ccn1` 40.7
